Target: PAS-B domain of HIF-1α (Homo sapiens, UniProt Q16665)
Construct: The HIF-1a PAS-B domain was expressed and purified as previously described; made in house
Sequence (Q16665 228-298 limits assumed): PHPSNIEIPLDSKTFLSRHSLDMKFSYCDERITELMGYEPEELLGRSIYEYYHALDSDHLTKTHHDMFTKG
Experiment: Microscale thermophoresis (MST) binding to HIF-1α PAS-B domain
Conditions: MST, HIF-1α PAS-B, mean (n = 3) ± SEM; read-out: KD
pKd: −log10 of the molar value. Peptide text beside a SMILES is read from it.
# binarize pKd: threshold 4 inclusive, high side Yes, low side No

- COMPOUND: "CC(C)C[C@@H]1NC(=O)[C@H](CCCNC(=N)N)NC(=O)[C@H](CS)NC(=O)[C@H](CC(C)C)NC(=O)[C@H](C(C)C)NC(=O)[C@H](Cc2ccc(O)cc2)NC1=O [CRLYVL, cyclo-CRLYVL] (cyclo(CRLYVL))"
  TARGET OR SYSTEM: "PAS-B domain of HIF-1α (Homo sapiens, UniProt Q16665)"
  ASSIGNED CATEGORY: "No"
- COMPOUND: "CC[C@H](C)[C@@H]1NC(=O)[C@H](Cc2ccccc2)NC(=O)[C@H](CCSC)NC(=O)[C@H](CCCNC(=N)N)NC(=O)[C@H](CS)NC(=O)[C@H](CC(C)C)NC1=O [CRMFIL, cyclo-CRMFIL] (cyclo(CRMFIL))"
  TARGET OR SYSTEM: "PAS-B domain of HIF-1α (Homo sapiens, UniProt Q16665)"
  ASSIGNED CATEGORY: "Yes"
- COMPOUND: "CC[C@H](C)[C@@H]1NC(=O)[C@H](CC(C)C)NC(=O)[C@H](CC(C)C)NC(=O)[C@H](CCCNC(=N)N)NC(=O)[C@H](CS)NC(=O)[C@H](CC(C)C)NC1=O [CRLLIL, cyclo-CRLLIL] (cyclo(CRLLIL))"
  TARGET OR SYSTEM: "PAS-B domain of HIF-1α (Homo sapiens, UniProt Q16665)"
  ASSIGNED CATEGORY: "Yes"
- COMPOUND: "CC[C@H](C)[C@@H]1NC(=O)[C@H](CC(C)C)NC(=O)[C@H]([C@@H](C)CC)NC(=O)[C@H](CCCNC(=N)N)NC(=O)[C@H](CS)NC(=O)[C@H](CC(C)C)NC1=O [CRILIL, cyclo-CRILIL] (cyclo(CRILIL))"
  TARGET OR SYSTEM: "PAS-B domain of HIF-1α (Homo sapiens, UniProt Q16665)"
  ASSIGNED CATEGORY: "Yes"

Task: Determine whether this compound has pKd no lower than 4: CC(C)C[C@@H]1NC(=O)[C@H](CC(C)C)NC(=O)[C@H](Cc2ccccc2)NC(=O)[C@H](C(C)C)NC(=O)[C@H](CCCCN)NC(=O)[C@H](CS)NC1=O [CKVFLL, cyclo-CKVFLL] (cyclo(CKVFLL))
Result: Yes

Task: Hi team, for CC[C@H](C)[C@@H]1NC(=O)[C@H](Cc2ccccc2)NC(=O)[C@H]([C@@H](C)CC)NC(=O)[C@H](CCCNC(=N)N)NC(=O)[C@H](CS)NC(=O)[C@H](CCSC)NC1=O [CRIFIM, cyclo-CRIFIM] (cyclo(CRIFIM)) , is the recorded pKd at or above 4?
Result: Yes

Task: Assess whether reported pKd for CC[C@H](C)[C@@H]1NC(=O)[C@H](Cc2ccc(O)cc2)NC(=O)[C@H](C(C)C)NC(=O)[C@H](CCCNC(=N)N)NC(=O)[C@H](CS)NC(=O)[C@H](CC(C)C)NC1=O [CRVYIL, cyclo-CRVYIL] (cyclo(CRVYIL)) sits at 4 or higher.
Result: Yes

Task: Form field: pKd at least 4? Entry: CSCC[C@@H]1NC(=O)[C@H](CCCNC(=N)N)NC(=O)[C@H](CS)NC(=O)[C@H](CC(C)C)NC(=O)[C@H](C(C)C)NC(=O)[C@H](Cc2ccc(O)cc2)NC1=O [CRMYVL, cyclo-CRMYVL] (cyclo(CRMYVL))
Result: Yes

Task: Has CC(C)C[C@@H]1NC(=O)[C@H](C(C)C)NC(=O)[C@H](Cc2ccc(O)cc2)NC(=O)[C@H](Cc2ccc(O)cc2)NC(=O)[C@H](CCCNC(=N)N)NC(=O)[C@H](CS)NC1=O [CRYYVL, cyclo-CRYYVL] (cyclo(CRYYVL)) a recorded pKd greater than or equal to 4?
Result: Yes

Task: Tell me whether pKd is at least 4 here: CC[C@H](C)[C@@H]1NC(=O)[C@H]([C@@H](C)O)NC(=O)[C@H](CCCNC(=N)N)NC(=O)[C@H](CS)NC(=O)[C@H](CC(C)C)NC(=O)[C@H](C(C)C)NC1=O [CRTIVL, cyclo-CRTIVL] (cyclo(CRTIVL))
Result: No

Task: Does CC[C@H](C)[C@@H]1NC(=O)[C@H](CC(C)C)NC(=O)[C@H](CCCNC(=N)N)NC(=O)[C@H](CS)NC(=O)[C@H](C(C)C)NC(=O)[C@H]([C@@H](C)CC)NC1=O [CRLIIV, cyclo-CRLIIV] (cyclo(CRLIIV)) have a reported pKd of at least 4?
Result: Yes

Task: Please indicate if the recorded pKd for CC[C@H](C)[C@@H]1NC(=O)[C@H](CCCNC(=N)N)NC(=O)[C@H](CCCNC(=N)N)NC(=O)[C@H](CS)NC(=O)[C@H](CC(C)C)NC(=O)[C@H]([C@@H](C)CC)NC1=O [CRRIIL, cyclo-CRRIIL] (cyclo(CRRIIL)) meets or exceeds 4.
Result: Yes

Task: Entry CC[C@H](C)[C@@H]1NC(=O)[C@H](CC(C)C)NC(=O)[C@H](Cc2ccc(O)cc2)NC(=O)[C@H](CCCNC(=N)N)NC(=O)[C@H](CS)NC(=O)[C@H](CC(C)C)NC1=O [CRYLIL, cyclo-CRYLIL] (cyclo(CRYLIL)) : is its pKd no less than 4?
Result: Yes

Task: Determine whether measured pKd meets or exceeds 4 for CC[C@H](C)[C@@H]1NC(=O)[C@H](Cc2ccc(O)cc2)NC(=O)[C@H]([C@@H](C)O)NC(=O)[C@H](CCCNC(=N)N)NC(=O)[C@H](CS)NC(=O)[C@H](CC(C)C)NC1=O [CRTYIL, cyclo-CRTYIL] (cyclo(CRTYIL))
Result: Yes

Task: Answer whether pKd of CC[C@H](C)[C@@H]1NC(=O)[C@H](CCCNC(=N)N)NC(=O)[C@H](CCSC)NC(=O)[C@H](C(C)C)NC(=O)[C@H](CS)NC(=O)[C@H](C)NC1=O [CVMRIA, cyclo-CVMRIA] (cyclo(ACVMRI)) is greater than or equal to 4.
Result: No

Task: Does the compound CC(C)C[C@@H]1NC(=O)[C@H](C(C)C)NC(=O)[C@H](CC(C)C)NC(=O)[C@H](C(C)C)NC(=O)[C@H](CCCNC(=N)N)NC(=O)[C@H](CS)NC1=O [CRVLVL, cyclo-CRVLVL] (cyclo(CRVLVL)) have recorded pKd that is 4 or more?
Result: No
